# Assayed system: formaldehyde dehydrogenase (FDH) (Pseudomonas putida)
# Construct: purchased Sigma-Aldrich
# Method description: FDH coupling enzyme counterscreen
# Format: biochemical
# Setup conditions: Table S1; FDH counterscreen
Reported metric: qHTS Data: jmjd2e fdh CurveClass

// solved cases for qHTS Data: jmjd2e fdh CurveClass follow
CC1CCN(CC(=O)NCCc2ccc(F)cc2)CC1.O=C(O)C(=O)O [compound 24804760]: Poor quality curve
O=C(O)C(=O)O.c1cc(CN2CCN(C3CCCCCC3)CC2)ccn1 [compound 24817627]: Inactive
Cc1cccc(OCC(=O)NCC(=O)N/N=C/c2ccc(O)cc2O)c1 [compound 26671311]: Poor quality curve
O=c1c(O)c(-c2ccc(O)c(O)c2)oc2c(O)c(O)cc(O)c12 [compound 26750048]: Inactive

IN: # input molecule: C/C(Cn1nnc([N+](=O)[O-])n1)=N\NC(=O)c1ccc(O)cc1O [compound 22414653] ; wanted: its qHTS Data: jmjd2e fdh CurveClass
OUT: Inactive

IN: # input molecule: CN(N=O)c1ccc(O)c(O)c1 [compound 50106719] ; wanted: its qHTS Data: jmjd2e fdh CurveClass
OUT: Poor quality curve

IN: # input molecule: NCC(O)c1ccc(O)c(O)c1.O=C(O)C(O)C(O)C(=O)O (stereo not drawn) [compound 50105780] ; wanted: its qHTS Data: jmjd2e fdh CurveClass
OUT: Inactive

IN: # input molecule: CCC(=O)c1ccccc1OCCN1CCN(Cc2ccccc2)CC1.O=C(O)C(=O)O [compound 24782649] ; wanted: its qHTS Data: jmjd2e fdh CurveClass
OUT: Inactive

* * *

# Assayed system: formaldehyde dehydrogenase (FDH) (Pseudomonas putida, UniProt P46154)
# Construct: purchased Sigma-Aldrich
# Sequence (P46154 whole entry): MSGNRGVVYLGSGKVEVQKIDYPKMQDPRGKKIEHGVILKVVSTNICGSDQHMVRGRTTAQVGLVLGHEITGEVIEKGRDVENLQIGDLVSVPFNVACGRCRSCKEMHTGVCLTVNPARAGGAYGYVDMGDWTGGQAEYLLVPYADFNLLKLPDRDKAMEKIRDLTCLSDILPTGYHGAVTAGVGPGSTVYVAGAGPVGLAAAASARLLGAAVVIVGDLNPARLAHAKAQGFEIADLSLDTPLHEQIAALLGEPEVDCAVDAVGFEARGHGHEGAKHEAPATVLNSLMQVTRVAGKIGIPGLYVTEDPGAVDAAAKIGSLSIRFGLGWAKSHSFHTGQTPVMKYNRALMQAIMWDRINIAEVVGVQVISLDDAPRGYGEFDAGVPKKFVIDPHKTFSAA
# Method description: FDH coupling enzyme counterscreen
# Assay type: biochemical
# Setup conditions: Table S1; FDH counterscreen
Reported metric: qHTS Data: jmjd2e fdh CurveClass

CCOC(=O)c1ccc(CC(=O)c2ccc(O)c(O)c2O)o1 [compound 24797852]: Inactive
Cl.NCCc1cc(O)c(O)cc1O [compound 26748180]: Poor quality curve
O=C(/C=C/c1ccccc1)NC(=S)NNC(=O)c1cnccn1 [compound 26725782]: Poor quality curve
N#C/C(=C\c1cc(O)c(O)c(O)c1)C(N)=O [compound 26725225]: Poor quality curve

IN: # input compound: Cl.NCCc1ccc(O)c(O)c1 [compound 50106387] ; wanted: its qHTS Data: jmjd2e fdh CurveClass
OUT: Inactive

IN: # input compound: COc1cccc(/C=N/NC(=O)CNC(=O)COc2cccc(C)c2)c1O [compound 26660958] ; wanted: its qHTS Data: jmjd2e fdh CurveClass
OUT: Inactive

* * *

The following compounds are shown together with reported pIC50 values.
# Assayed system: JMJD2E (KDM4E) (Homo sapiens, UniProt B2RXH2)
# Construct: The catalytic domain of human JMJD2E (residues 1–337); His6 (N); made in house; host or cells: E. coli
# Sequence (B2RXH2 1-337): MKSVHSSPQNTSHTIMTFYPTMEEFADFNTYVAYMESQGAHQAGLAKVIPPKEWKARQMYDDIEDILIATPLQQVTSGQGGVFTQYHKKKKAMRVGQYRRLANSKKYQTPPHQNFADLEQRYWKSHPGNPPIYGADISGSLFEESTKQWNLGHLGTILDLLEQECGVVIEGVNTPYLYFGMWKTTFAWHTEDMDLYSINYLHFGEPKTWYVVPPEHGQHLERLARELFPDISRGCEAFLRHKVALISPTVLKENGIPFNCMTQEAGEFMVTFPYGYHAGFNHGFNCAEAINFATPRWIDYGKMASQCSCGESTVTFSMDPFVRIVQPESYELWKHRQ
# Method description: qHTS fluorescence FDH-coupled JMJD2E demethylase assay
# Assay type: biochemical
# Setup conditions: Table S1; unit not in table, from Figure 2; read-out: qHTS Data: jmjd2e IC50
Please keep in mind that pIC50 is minus log10 of the molar concentration; only the number is needed.

// solved cases for pIC50 follow
O=C1C=CC(=O)c2c(O)cccc21: 5.15
CCN1/C(=C\c2ccc3ccccc3[n+]2CC)Sc2cc(C)ccc21.[I-]: 5.85
O=C1c2ccc(O)c(O)c2C(=O)c2c(O)ccc(O)c21: 5.45
NC(=O)c1ccc(-n2nnnc2SCC(=O)c2ccc(O)c(O)c2)cc1: 6.15
Cc1ccc(N2C(=O)CC(Sc3ncn[nH]3)C2=O)cc1C (stereo not drawn): 5.90
Cc1cc(C(=O)NNC(=S)NC(=O)/C=C/c2ccccc2Cl)n[nH]1: 5.10
O=c1nc(N/N=C/c2ccccn2)cn[nH]1: 5.00
CCc1ccc2c(O)c3c(cc2c1C(=O)OC)C(=O)c1c(O)ccc(O)c1C3=O: 5.55

As a next step, examine the compound that follows.
IN: # input compound: `O=c1c(-c2cc(O)c(O)c(O)c2)coc2cc(O)c(O)c(O)c12` ; wanted: its pIC50
OUT: 5.55
